assay: HUVEC growth inhibition – cell-based, human, primary screen (AID 575); conditions: HUVEC proliferation, CellTiter-Glo luminescence, 72 h; at 10 µM; stronger effect = lower value;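 also: 100% = median of untreated cell wells with 0.1% DMSO on each plate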
So I've got a bunch of compounds here, and I need their viability values.
Response body: numeric value in %, unit text excluded.

Give the measured viability of COc1ccc(CN(C2CCCC2)S(=O)(=O)c2ccc(-n3cnnn3)cc2)cc1OC . 80.5

Would you mind telling me what viability value was observed for CC1(C)CC(=O)c2sc(NS(C)(=O)=O)nc2C1 ? 101

Would you mind telling me what viability value was observed for CC(N)C12CC3CC(C1)CC(C(C)N)(C3)C2 (stereo not drawn) ? 110

Please look up its viability: CC(C)(C)NC(=O)CN(C(=O)CS(=O)CC(=O)Nc1ccc(F)cc1)c1ccc(Cl)cc1 (stereo not drawn) 95.2

// lookup viability for CC(C(=O)NC(=O)NC1CCCCC1)N1CCN(c2ccccn2)CC1 (stereo not drawn) 95.6

Entry under review: Cc1cc(C(=O)Nc2ccc(S(=O)(=O)Nc3onc(C)c3C)cc2)cs1 . Reported viability? 101

Returns the measured viability for the input compound. Input: CCCn1c(SCC(=O)NC(C)(C)C)nnc1C(C)C 95.9

# input compound: O=C(Nc1ccc2c(c1)OCO2)c1ccc(Br)c(S(=O)(=O)N2CCCC2)c1 ; wanted: its viability 58

So what does the record say about viability for O=C(Nc1ccc(F)cc1)N(Cc1ccco1)Cc1cc2cc3c(cc2[nH]c1=O)OCO3 ? 58.7

May I ask what viability has been recorded for CCn1cc(C(=O)O)c(=O)c2ccc(C)nc21 ? 92.1

Endpoint output: viability of Cc1cccc(-n2ncc3c(NCc4ccccn4)ncnc32)c1 . Value? 97.5

Could you share which viability value was measured for CCCCc1nc2n[nH]c(N)c2c2c1CCCC2 ? 59.9

Dear colleague, I am looking for the recorded viability of the following compound: CCCc1nc(NCc2ccncc2)c2nnn(Cc3ccccc3F)c2n1 107

Endpoint output: viability of O=S(=O)(NCc1ccccn1)c1ccc2c(c1)OCCO2 . Value? 114

Form field: reported viability of O=C(CCn1c(=O)c2sccc2n(CC(=O)NCc2ccco2)c1=O)NCc1ccccc1 93.6

# viability lookup, item Cc1ccc(OCC(O)Cn2c(NCCc3ccccc3)nc3c2c(=O)[nH]c(=O)n3C)cc1 (stereo not drawn) 88.8

Which viability is listed for COc1ccccc1-n1c(=O)c2c3c(sc2n2c(SC(C)C)nnc12)CCC3 ? 113

Which viability is listed for O=C(O)c1ccc2noc(-c3ccccc3)c2c1 ? 86.9

Fill in the blank: the reported viability of O=C(Nc1ccccc1C(=O)N1CCOCC1)c1cccc(S(=O)(=O)N2CCCC2)c1 is ____. 92.3

I would be grateful if you could share the reported viability for Cn1c(=O)c2c(nc(SCC(=O)N3CCCc4ccccc43)n2C)n(C)c1=O . 107

Value lookup for viability; key = COc1ccc(NC(=O)COc2ccccc2)c(OC)c1 111

Looking for the measured viability of COc1ccc(C(=O)CN2C(=O)NC3(CCCc4ccccc43)C2=O)cc1OC (stereo not drawn) , can you help? 95.6

Entry CCCCCC(=O)N(CN1C(=O)CCC1=O)c1ccccc1 has what viability? 104

* * *

Field: inhibition. Provide a value for each of the compounds that follow.
experiment: growth suppression of yeast trafficking mutant, preliminary HTS, modulators of trafficking downstream of Golgi apparatus project, 1536-format plate, OD 615 nm (AID 637); details: yeast transport mutant growth, absorbance 615 nm, 18 h; stronger effect = higher value
// note: answer is a bare numeric in %

Dear colleague, I am looking for the recorded inhibition of the following compound: COc1ccccc1N1CCN(C(=O)CN(Cc2ccc(Cl)cc2)S(C)(=O)=O)CC1 -0.49

inhibition for COc1ccccc1-n1c(=O)c2c3c(sc2n2c(SC(C)C)nnc12)CCC3 ? 1.77

Consider the compound COC1=CC(=O)CC(C)C12Oc1c(Cl)c(OC)cc(OC)c1C2=O (stereo unspecified) and give its measured inhibition. -5.67

Given C=CCn1c(Br)nc2c1c(=O)[nH]c(=O)n2C , state its recorded inhibition. 3.33

What value of inhibition has been reported for the following compound? Cc1cc(=O)n(CCO)c(O)c1C#N 22.8

Give its inhibition value. Item: Cc1sc2nc(SCC(=O)N3CCN(CCO)CC3)n(-c3ccccc3)c(=O)c2c1C -0.16

Consider the compound OC1C=CSc2nc3ccccc3n21 (stereo unspecified) and give its measured inhibition. 1.8

inhibition for COc1cccc(N2CCN(Cc3nc(N)nc(Nc4ccccc4)n3)CC2)c1 ? 0.16

Fill in: inhibition of CCCCOc1ccc(C(=O)Nc2ccc(N3CCN(C(C)=O)CC3)cc2)cc1 is ___ 0.91

Fill blank: measured inhibition of the compound Cc1cc(-n2c(C)cc(C(=O)CSc3nnnn3-c3ccc(Cl)cc3)c2C)no1 is ____. -5.56

Fill blank: measured inhibition of the compound CN1CCN(C(=O)C2(NC(=O)Nc3cccc(F)c3)CCCCC2)CC1 is ____. -3.02

* * *

assay: reversal of MRP1-mediated doxorubicin resistance, pilot screen, H69AR cells, doxorubicin co-treatment (AID 601); conditions: H69AR cells, CellTiter-Glo, 72 h; compound alone cytotoxicity; at 10 µM
Note to self: use Y only for viability readings below 90%; a reading exactly at 90% still gets N.

Check if viability falls below 90% for CCOc1ccccc1N1C(=O)CC(Sc2ncccc2C(=O)O)C1=O (stereo not drawn) . N

Please let me know if Cc1c(C(=O)NCc2ccccn2)sc2nc(-c3ccc(F)cc3)cn12 shows viability below 90%. N

Does this molecule meet the criterion viability < 90%? O=C(CSCc1ccc(F)cc1)NC1CCCC1 N

Please let me know if CCC(C)(C(=O)NC1CCCC1)N(Cc1cccs1)C(=O)Cc1cccs1 (stereo not drawn) shows viability below 90%. N

Please check: viability for OC(CN1CCN(c2ccccc2)CC1)c1ccc2c(c1)CCN2 (stereo not drawn) , strictly under 90% or not? Y

Does the reported viability of O=C1c2ccccc2C(=O)N1CCCn1nnc(-c2ccc(N3CCOCC3)cc2)n1 stay below 90%? N

Field: below-cutoff. Rule: recorded viability strictly less than 90%. Subject: Nc1nc(CSc2nc3ccccc3[nH]2)nc(N2CCOCC2)n1 N

Consider the molecule CCC12CN3CC(CC)(CN(C1)C3c1ccc(OC(C)C)cc1)C2=O (stereo not drawn) . Is its viability strictly less than 90%? N

In plain terms, does COc1cccc(NC(=O)CSc2nnnn2C(C)C)c1 come in under 90% for viability? N

Please indicate whether the reported viability of Cc1[nH]c2ccccc2c1Cc1nnc(SCC(=O)NCc2ccco2)o1 is strictly below 90%. N

Find out if reported viability for CC(=O)NCc1cccc(CNC(C)=O)n1 is less than 90% N

Decide: viability of Cc1nc2sccn2c(=O)c1CCN1CCC(=C(c2ccc(F)cc2)c2ccc(F)cc2)CC1 strictly below 90%? Y

Does the reported viability of Cn1c(=O)c2c(nc(CN3CCCCC3)n2CCCc2ccccc2)n(C)c1=O stay below 90%? Y

I'd appreciate it if you could check whether CCOC(=O)c1[nH]c(C)c(C(=O)Nc2ccccc2F)c1C has viability smaller than 90%. Y

# strict comparison: is reported viability < 90%? input = COCCCN1C(=O)C(O)=C(C(C)=O)C1c1ccccn1 (stereo not drawn) Y

Hello, I'm reviewing records and need to know if viability of O=C1[C@@H]2C(c3ccccc3Cl)=NO[C@@H]2C(=O)N1Cc1ccccc1 is below 90%. Could you check? N

Check if viability falls below 90% for Cc1ccc(S(=O)(=O)N2CCN(C(=O)N3CCOCC3)C2C)cc1 (stereo not drawn) . N

* * *

Consider the following compounds; for each one, report its viability.
test: HUVEC growth inhibition – cell-based, human, primary screen (AID 575); conditions: HUVEC proliferation, CellTiter-Glo luminescence, 72 h; at 10 µM; stronger effect = lower value;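 also: 100% = median of untreated cell wells with 0.1% DMSO on each plate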
Form entry: value (%) — number only.

Quick one: viability of CCCCn1c(SCC(=O)NCc2ccccc2)nc2ccc(N3CCOCC3)cc2c1=O ? 98.1

Data request, read-out viability, for Cc1cccc(NC(=O)CCn2ccnc2C)c1 98.8

Can you share its viability? I mean this compound: COc1ccc(CC(=O)Nc2cc(Cl)ccc2O)cc1 84.5

I'd like to know its viability. The compound in question is O=c1c2cc3ccccc3n2cnn1Cc1ccccc1F 57.9

Could you tell me which viability is on file for Cc1oncc1C(=O)Nc1ccc(C(F)(F)F)cc1 ? 69.8

Would you kindly share the measured viability for COc1cccc(S(=O)(=O)Nc2ccc(C(=O)N3CCN(C(=O)c4ccco4)CC3)cc2)c1 ? 104

Look up viability: COc1ccc(S(=O)(=O)N2CCN(Cc3ccc(Cl)cc3)CC2)cc1 90.7

Need viability, item CCN(CC)c1ccc2c(c1)CCCN2 95.9

Name the reported viability value associated with the compound O=[n+]1cc(-c2ccc(F)cc2)n([O-])c2c1CCC2 100

Any idea what its viability is? The compound is COc1cccc(CC(=O)Nn2c(C)nc3ccccc3c2=O)c1 115

Query: viability; subject: CCOC(=O)C1CCCN(C(=O)CNS(=O)(=O)c2ccc(Br)s2)C1 (stereo not drawn) 108

Find the recorded viability belonging to CC1CCCCN1C(=O)Cn1nnc(-c2cccnc2)n1 (stereo not drawn) and report it. 97.2

Consider the compound shown here: O=S(=O)(NC1CCCCC1NS(=O)(=O)c1ccc(F)cc1)c1ccc(F)cc1 (stereo not drawn) What is its recorded viability? 91.2

For O=C(CN(Cc1ccc(F)cc1)C(=O)Cn1nnc2ccccc21)NCC1CCCO1 (stereo not drawn) , what is its reported viability? 118

Fill blank: measured viability of the compound COc1ccc(NC(=O)CCc2ccccc2)cc1NC(=O)c1ccco1 is ____. 58.4

Report viability for O=C(CCCNS(=O)(=O)c1ccccc1)NCc1ccco1 please. 94.5

What measured viability goes with CN1C(=O)c2c(sc3c2CCCC3)NC1c1ccccc1O (stereo not drawn) ? 68.7

If you can, please state the reported viability value of CCOC(=O)c1[nH]c(CSc2nnc(-c3ccc(OC)cc3)o2)c(C(=O)OCC)c1C . 72.3

Could you share which viability value was measured for CCOC(=O)C1C(=O)NC(SCC(=O)Nc2nccs2)=C(C#N)C1c1ccccc1OCC (stereo not drawn) ? 76.2

Query: viability; subject: O=C(O)C1CC=CCC1C(=O)Nc1cccc(C(=O)N2CCCCC2)c1 (stereo not drawn) 107

Value lookup for viability; key = Cc1nn(C)c(C)c1NC(=O)CCSc1nc(-c2ccco2)cc(C(F)(F)F)n1 93

Fill in: viability of CC(C)(C)NC(=O)C(Cc1ccccc1)NS(=O)(=O)c1cccc2nsnc12 (stereo not drawn) is ___ 105

Find the recorded viability belonging to CC(=O)OCC(=O)[C@H]1CC[C@H]2[C@@H]3CC=C4C[C@@H](O)CC[C@]4(C)[C@H]3CC[C@]12C and report it. 44.3
